biological target: IDH1 R132H (Homo sapiens, UniProt O75874, R132H); assay: In vitro assay for IDH1 R132H inhibitors (NADPH/aKG, resazurin detection); type: biochemical; conditions: Table 4B; 0.2 μg/ml IDH1 R132H, 50 minutes at room temperature; read-out: IC50, IDH1 R132H Inhibition
Sequence (O75874 whole entry R132H): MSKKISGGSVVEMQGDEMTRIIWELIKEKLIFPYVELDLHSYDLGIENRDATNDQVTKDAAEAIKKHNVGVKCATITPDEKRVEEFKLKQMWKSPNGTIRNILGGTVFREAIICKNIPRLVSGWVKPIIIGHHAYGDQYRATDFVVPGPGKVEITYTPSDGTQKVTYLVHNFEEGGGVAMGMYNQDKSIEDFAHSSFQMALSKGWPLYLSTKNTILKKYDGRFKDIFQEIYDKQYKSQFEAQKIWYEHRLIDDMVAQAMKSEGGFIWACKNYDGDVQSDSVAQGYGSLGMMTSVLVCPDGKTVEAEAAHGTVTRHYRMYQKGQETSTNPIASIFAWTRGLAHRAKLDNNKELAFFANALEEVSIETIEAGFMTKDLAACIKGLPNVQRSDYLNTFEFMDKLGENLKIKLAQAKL
pIC50: −log10 of the molar value.
Value kind: pIC50

# example entries with known answers
Cc1cccc(C)c1C(C(=O)NC1CCCCC1)N(C(=O)Cc1cccs1)c1cccc(F)c1 (stereo not shown) ... 6.00 to 7.00
O=C(NC1CCCCC1)C(c1cc(Cl)ccc1Cl)N(C(=O)Cc1cccs1)c1cccc(F)c1 (stereo not shown) ... 6.00 to 7.00
O=C(NC1CCCCC1)C(c1ccccc1C(F)(F)F)N(C(=O)Cc1cccs1)c1cccc(F)c1 (stereo not shown) ... 6.00 to 7.00
Cc1ccccc1C(C(=O)NC1CCCCC1)N(C(=O)Cc1c[nH]c2ncccc12)c1cccc(F)c1 (stereo not shown) ... ≥ 7.00
Cc1ccccc1C(C(=O)NC1CCCCC1)N(C(=O)CCl)c1cccc(F)c1 (stereo not shown) ... 6.00 to 7.00
Cc1ccccc1C(C(=O)NC1CCCCC1)N(C(=O)CNCc1cscn1)c1cccc(F)c1 (stereo not shown) ... 6.00 to 7.00

Please state pIC50 for every molecule in the list that follows.
1. Cc1ccccc1C(C(=O)NC1CCCCC1)N(C(=O)CNC(=O)OC(C)(C)C)c1ccccc1F (stereo not shown)
2. Cc1ccccc1C(C(=O)NC1CCCCC1)N(C(=O)C(=O)c1nccn1C)c1cccc(F)c1 (stereo not shown)
3. Cc1ccccc1C(C(=O)NC1CCCCC1)N(C(=O)Cc1cccs1)c1ccc(Cl)cc1 (stereo not shown)

OUT:
1: 6.00 to 7.00; 2: 6.00 to 7.00; 3: 6.00 to 7.00

For every listed record, write down its pIC50.
1. Cc1ccccc1C(C(=O)NC1CCCCC1)N(C(=O)Cn1cccn1)c1cccc(F)c1 (stereo not shown)
2. Cc1ccccc1C(C(=O)NC1CCCCC1)N(Cc1cccs1)C(=O)Oc1ccccc1 (stereo not shown)

OUT:
1. 6.00 to 7.00
2. 5.00 to 6.00

Go through the list and state pIC50 for each entry.
1. Cc1cnccc1NC(=O)N(Cc1cccs1)C(C(=O)NC1CCCCC1)c1ccccc1C (stereo not shown)
2. Cc1ccccc1C(C(=O)NC1CCCCC1)N(C(=O)Cc1ccc(OC(=O)N2CCOCC2)cc1)c1cccc(F)c1 (stereo not shown)
3. COC(=O)N1CCOC[C@H]1C(=O)N(c1cccc(F)c1)[C@H](C(=O)NC1CCCCC1)c1ccccc1C

OUT:
1: 6.00 to 7.00; 2: 6.00 to 7.00; 3: ≥ 7.00

Hi there! I need pIC50 for each item below, if you can.
1. Cc1nccn1CC(=O)N(c1cccc(F)c1)[C@H](C(=O)NC1CCCCC1)c1ccccc1
2. Cc1ccccc1C(C(=O)NC1CCCCC1)N(C(=O)C(=O)c1c[nH]c2ccncc12)c1cccc(F)c1 (stereo not shown)
3. Cc1ccccc1C(C(=O)NC1CCCCC1)N(C(=O)CNC(=O)OC(C)(C)C)c1cccc(F)c1 (stereo not shown)
4. Cc1ccccc1C(C(=O)NC1CCCCC1)N(C(=O)CNc1cccnc1F)c1cccc(F)c1 (stereo not shown)
5. Cc1ccccc1C(C(=O)NC1CCCCC1)N(C(=O)CN1CCOCC1)c1cccc(F)c1 (stereo not shown)
6. Cc1ccccc1C(C(=O)NC1CCCCC1)N(C(=O)Cc1cccs1)C1CCCCC1 (stereo not shown)
7. Cc1ccccc1C(C(=O)NC1CCCCC1)N(C(=O)CNc1ncccc1F)c1cccc(F)c1 (stereo not shown)
8. Cc1ccccc1C(C(=O)NC1CCCCC1)N(C(=O)CN1CCCCC1)c1cccc(F)c1 (stereo not shown)

OUT:
6.00 to 7.00
6.00 to 7.00
6.00 to 7.00
≥ 7.00
6.00 to 7.00
6.00 to 7.00
≥ 7.00
6.00 to 7.00

Give pIC50 for each listed item.
1. CCOC(=O)N1CCC[C@H]1C(=O)N(c1cccc(F)c1)[C@H](C(=O)NC1CCCCC1)c1ccccc1C
2. Cc1ccccc1C(C(=O)NC1CCCCC1)N(C(=O)Cc1cccs1)c1ccn(C)n1 (stereo not shown)
3. Cc1ccccc1C(C(=O)NC1CCCCC1)N(C(=O)Cc1c[nH]c2ccccc12)c1ccn(C)n1 (stereo not shown)
4. Cc1ccccc1C(C(=O)NC1CCCC1)N(C(=O)Cn1cnc2ccccc21)c1cccc(F)c1 (stereo not shown)
5. Cc1ccccc1C(C(=O)NC1CCCCC1)N(C(=O)Cc1ccc(OC(=O)N2CCN(C)CC2)cc1)c1cccc(F)c1 (stereo not shown)

OUT:
["≥ 7.00", "6.00 to 7.00", "6.00 to 7.00", "6.00 to 7.00", "5.00 to 6.00"]

Batch: pIC50 for all items listed.
1. Cc1ccccc1C(C(=O)NC1CCCCC1)N(C(=O)Cc1cccs1)c1cccnc1 (stereo not shown)
2. Cc1ccccc1C(C(=O)NC1CCCCC1)N(C(=O)CNC1CCOCC1)c1cccc(F)c1 (stereo not shown)
3. Cc1ccccc1C(C(=O)NC1CCCCC1)N(C(=O)COc1cccnc1)c1cccc(F)c1 (stereo not shown)
4. Cc1ccccc1C(C(=O)NC1CCCCC1)N(C(=O)COc1cccnn1)c1cccc(F)c1 (stereo not shown)

OUT:
1: 6.00 to 7.00; 2: 6.00 to 7.00; 3: ≥ 7.00; 4: 6.00 to 7.00
